# System: UACC-62 melanoma
# PROCEDURE_DETAILS: NCI-60 one-dose screen, 48 h (100 = growth as untreated, 0 = no growth, -100 = all killed)
# SETUP_CONDITIONS: 10 µM unless noted
Compounds without any hit were thinned out: in the full panel of roughly 83,000, 20% have a hit.
OBSERVED_PROPERTY: growth (%)
Please give a number only; it is taken to be in %.

Previously resolved entries follow.
[
  {
    "MOLECULE": "O=C(N/N=C/c1ccccc1Cl)C(=O)Nc1cccc(C(F)(F)F)c1",
    "growth [%]": 91.2
  },
  {
    "MOLECULE": "O=C(Nc1ccc(N2CCNCC2)cc1)c1[nH]ncc1Nc1ncnc2sc3c(c12)CCC3",
    "growth [%]": -85.1
  },
  {
    "MOLECULE": "CNCCNc1nc2ccccc2c2c(=O)c3cccc(OC)c3sc12",
    "growth [%]": 44.4
  },
  {
    "MOLECULE": "CNCCNc1nc2ccccc2c2c(=O)c3cc(F)ccc3sc12",
    "growth [%]": 22.3
  }
]

Which growth is listed for O=C(Cc1ccccc1)NC(c1ccc(Cl)cc1)c1c(O)ccc2ccccc12 (configuration not stated) ?
5.84

Which growth is listed for O=C1/C(=C/c2ccc(O)cc2)COc2ccc(O)cc21 ?
92.8

Which growth is listed for O=C(NCCCN1CCC(N2CCCCC2)CC1)C1=Cc2cc(Br)ccc2OC1 ?
53.6

Which growth is listed for COc1cc(C(=O)Nc2ccc(-c3nc4ccccc4[nH]3)cc2)cc(OC)c1OC ?
47.2

Which growth is listed for COc1ccc(/C=C/C(=O)c2c(C)nc3ccccc3c2/C=C/c2ccccc2)c(OC)c1 ?
62.1

Which growth is listed for OC(CNC1CCCCC1)Cn1c2ccc(I)cc2c2cc(I)ccc21 (configuration not stated) ?
64.8

---

# System: HT29 colon
# PROCEDURE_DETAILS: NCI-60 one-dose screen, 48 h (100 = growth as untreated, 0 = no growth, -100 = all killed)
# SETUP_CONDITIONS: 10 µM unless noted
Compounds without any hit were thinned out: in the full panel of roughly 83,000, 20% have a hit.
growth overview
Please give a number only; it is taken to be in %.

Previously resolved entries follow.
[
  {
    "MOLECULE": "O=C(COc1cc(O)c2c(=O)cc(-c3ccccc3)oc2c1)Nc1ccccc1C(F)(F)F",
    "STUDY_TARGET": "HT29 colon",
    "UNITS": "%",
    "growth": 70.6
  },
  {
    "MOLECULE": "CCC(C)(C)C(=O)O[C@H]1C[C@@H](C)C=C2C=C[C@H](C)[C@H](CC[C@@H]3CC=CC(=O)O3)[C@H]21",
    "STUDY_TARGET": "HT29 colon",
    "UNITS": "%",
    "growth": 44.5
  },
  {
    "MOLECULE": "COc1ccc(C)c2sc(N(Cc3cccnc3)C(=O)c3ccc(C#N)cc3)nc12",
    "STUDY_TARGET": "HT29 colon",
    "UNITS": "%",
    "growth": 16
  }
]

Which growth is listed for CC1=C(C(=O)OCC2CCN(C(=O)OC(C)(C)C)CC2)[C@H](c2cccc(C#N)c2)C2=C(CC(C)(C)CC2=O)N1 ?
30.9

Which growth is listed for O=CCCCC(O)C=O (stereo unspecified) ?
111

Which growth is listed for O=C(NC(=S)Nc1cccc(NC(=S)NC(=O)c2ccccc2)c1)c1ccccc1 ?
74.1
